Ref: the NIST ThermoML archive (doi:10.1007/s10765-019-2573-6)

Protocol Conditions: 333.15 K; 20000 kPa; Liquid; Vibrating wire viscometry
Numbers after ± are expanded uncertainties.
Endpoint: viscosity
Provide the measurement as a number trailed by its unit.

{"Molecule": "CCCOC(=O)CCCCC(=O)OCCC [dipropyl hexanedioate]", "Endpoint": "viscosity", "Experimental Value": "2.391 ± 0.055 mPa·s"}
{"Molecule": "CCCCOC(=O)CCCCC(=O)OCCCC [dibutyl hexanedioate]", "Endpoint": "viscosity", "Experimental Value": "2.814 ± 0.06 mPa·s"}
{"Molecule": "CCOC(=O)CCCCC(=O)OCC [diethyl hexanedioate]", "Endpoint": "viscosity", "Experimental Value": "1.896 ± 0.04 mPa·s"}

Now for another entry.
Sample COC(=O)CCCCC(=O)OC [dimethyl 1,6-hexanedioate] — what was its viscosity?
1.764 ± 0.038 mPa·s

----------
Reported viscosity by item:
Protocol Conditions: 333.15 K; 1000 kPa; Liquid; Vibrating wire viscometry
Numbers after ± are expanded uncertainties.
Provide the measurement as a number trailed by its unit.

Previously resolved entries follow.
{"Molecule": "CCCOC(=O)CCCCC(=O)OCCC [dipropyl hexanedioate]", "Experimental Value": "1.973 ± 0.046 mPa·s"}
{"Molecule": "CCCCOC(=O)CCCCC(=O)OCCCC [dibutyl hexanedioate]", "Experimental Value": "2.304 ± 0.05 mPa·s"}
{"Molecule": "CCOC(=O)CCCCC(=O)OCC [diethyl hexanedioate]", "Experimental Value": "1.592 ± 0.034 mPa·s"}

Sample COC(=O)CCCCC(=O)OC [dimethyl 1,6-hexanedioate] — what was its viscosity?
1.514 ± 0.033 mPa·s

----------
Protocol Conditions: 343.15 K; 20000 kPa; Liquid; Vibrating wire viscometry
Endpoint: viscosity (mPa·s)
Give the value, in units of mPa·s, as a plain number.

{"Compound": "CCOC(=O)CCCCC(=O)OCC [diethyl hexanedioate]", "viscosity (mPa·s)": 1.624}
{"Compound": "COC(=O)CCCCC(=O)OC [dimethyl 1,6-hexanedioate]", "viscosity (mPa·s)": 1.514}
{"Compound": "CCCCOC(=O)CCCCC(=O)OCCCC [dibutyl hexanedioate]", "viscosity (mPa·s)": 2.37}

Now for another entry.
Sample CCCOC(=O)CCCCC(=O)OCCC [dipropyl hexanedioate] — what was its viscosity?
2.019

----------
Protocol Conditions: 323.15 K; 20000 kPa; Liquid; Vibrating wire viscometry
Endpoint: viscosity (mPa·s)
Give the value, in units of mPa·s, as a plain number.

{"Compound": "CCOC(=O)CCCCC(=O)OCC [diethyl hexanedioate]", "Experimental Value": 2.248}

Sample CCCOC(=O)CCCCC(=O)OCCC [dipropyl hexanedioate] — what was its viscosity?
2.867

Sample CCCCOC(=O)CCCCC(=O)OCCCC [dibutyl hexanedioate] — what was its viscosity?
3.393

Sample COC(=O)CCCCC(=O)OC [dimethyl 1,6-hexanedioate] — what was its viscosity?
2.089

----------
Protocol Conditions: 353.15 K; 100 kPa; Liquid; Vibrating wire viscometry
Reported viscosity by item:
Give the value, in units of mPa·s, as a plain number.

{"Compound": "CCOC(=O)CCCCC(=O)OCC [diethyl hexanedioate]", "Unit Info": "mPa·s", "Experimental Value": 1.177}

Sample COC(=O)CCCCC(=O)OC [dimethyl 1,6-hexanedioate] — what was its viscosity?
1.128

Sample CCCOC(=O)CCCCC(=O)OCCC [dipropyl hexanedioate] — what was its viscosity?
1.426

Sample CCCCOC(=O)CCCCC(=O)OCCCC [dibutyl hexanedioate] — what was its viscosity?
1.655
